Assay context: in propylene glycol, 293.2 K
Recorded endpoint: solubility (mole fraction)

| Smi | Recorded endpoint | Measurement |
| --- | --- | --- |
| O=C1CCC(c2ccccc2)=NN1 | solubility (mole fraction) | 0.00654 |

====

Assay context: in ethanol, 308.2 K
Recorded endpoint: solubility (mole fraction)

| Smi | Measurement |
| --- | --- |
| O=C1CCC(c2ccccc2)=NN1 | 0.00607 |

====

Assay context: in PEG-400, 298.2 K
Recorded endpoint: solubility (mole fraction)

| Smi | Recorded endpoint | Measurement |
| --- | --- | --- |
| O=C1CCC(c2ccccc2)=NN1 | solubility (mole fraction) | 0.0646 |

====

Assay context: in water, 308.2 K

| Smi | solubility (mole fraction) |
| --- | --- |
| O=C1CCC(c2ccccc2)=NN1 | 1.37e-06 |

====

Assay context: in ethanol, 293.2 K
Recorded endpoint: solubility (mole fraction)

| Smi | Recorded endpoint | Measurement |
| --- | --- | --- |
| O=C1CCC(c2ccccc2)=NN1 | solubility (mole fraction) | 0.00407 |

====

Assay context: in transcutol, 293.2 K

| Smi | solubility (mole fraction) |
| --- | --- |
| O=C1CCC(c2ccccc2)=NN1 | 0.423 |

====

Assay context: in n-butanol, 308.2 K
Recorded endpoint: solubility (mole fraction)

| Smi | Measurement |
| --- | --- |
| O=C1CCC(c2ccccc2)=NN1 | 0.0067 |

====

Assay context: in PEG-400, 308.2 K

| Smi | solubility (mole fraction) |
| --- | --- |
| O=C1CCC(c2ccccc2)=NN1 | 0.078 |

====

Assay context: in DMSO, 298.2 K

| Smi | solubility (mole fraction) |
| --- | --- |
| O=C1CCC(c2ccccc2)=NN1 | 0.647 |

====

Assay context: in n-butanol, 298.2 K

| Smi | solubility (mole fraction) |
| --- | --- |
| O=C1CCC(c2ccccc2)=NN1 | 0.0053 |

====

Assay context: in isopropanol, 298.2 K
Recorded endpoint: solubility (mole fraction)

| Smi | Measurement |
| --- | --- |
| O=C1CCC(c2ccccc2)=NN1 | 0.00378 |

====

Assay context: in ethyl acetate, 293.2 K
Recorded endpoint: solubility (mole fraction)

| Smi | Measurement |
| --- | --- |
| O=C1CCC(c2ccccc2)=NN1 | 0.00878 |

====

Assay context: in water, 313.2 K

| Smi | solubility (mole fraction) |
| --- | --- |
| O=C1CCC(c2ccccc2)=NN1 | 1.61e-06 |

====

Assay context: in n-butanol, 313.2 K

| Smi | solubility (mole fraction) |
| --- | --- |
| O=C1CCC(c2ccccc2)=NN1 | 0.00768 |

====

Assay context: in ethyl acetate, 303.2 K

| Smi | solubility (mole fraction) |
| --- | --- |
| O=C1CCC(c2ccccc2)=NN1 | 0.0111 |

====

Assay context: in isopropanol, 313.2 K

| Smi | solubility (mole fraction) |
| --- | --- |
| O=C1CCC(c2ccccc2)=NN1 | 0.00651 |

====

Assay context: in propylene glycol, 313.2 K
Recorded endpoint: solubility (mole fraction)

| Smi | Measurement |
| --- | --- |
| O=C1CCC(c2ccccc2)=NN1 | 0.0103 |
